- assayed system: human factor Xa (FXa) (Homo sapiens (Human), UniProt P00742)
- Sequence (P00742 235-488): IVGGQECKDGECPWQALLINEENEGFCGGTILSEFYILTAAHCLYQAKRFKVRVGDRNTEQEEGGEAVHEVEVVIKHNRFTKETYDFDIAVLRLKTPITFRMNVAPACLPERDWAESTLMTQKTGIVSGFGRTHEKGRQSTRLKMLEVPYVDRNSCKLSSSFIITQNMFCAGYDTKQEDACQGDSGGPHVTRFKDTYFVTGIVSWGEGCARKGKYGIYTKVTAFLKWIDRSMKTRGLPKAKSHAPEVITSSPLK
- Sequence (P00742 41-179 partner): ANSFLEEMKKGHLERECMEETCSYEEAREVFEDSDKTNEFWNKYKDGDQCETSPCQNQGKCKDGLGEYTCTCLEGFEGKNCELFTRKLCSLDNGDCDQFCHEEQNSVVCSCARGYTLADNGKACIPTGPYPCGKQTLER
- test description: Determination of the factor Xa inhibition (chromogenic substrate)
- Assay type: biochemical
- test settings: human FXa; table of Examples 48-57
property measured: pIC50
# log scale: pIC50 equals minus log10 of the concentration in mol/L

## Input Which pIC50 is reported with human factor Xa (FXa) (Homo sapiens (Human), UniProt P00742) for this entry: O=C(NC[C@H]1CN(c2ccc(N3CCN(C(=O)CO)CC3)c(F)c2)C(=O)O1)c1ccc(Cl)s1 ?
## Output 6.92
